Would you kindly list selectivity ratio for each of these compounds?
Assay: Therapeutic index, ratio of neurotoxicity in iv dosed Sprague-Dawley rat assessed as total amount of drug infused at the point that partial or complete convulsions are first observed to 20 times ED50 for antiarrhythmic activity in iv dosed Sprague-Dawley rat coronary artery occlusion model
Assay type: organism-based
Conditions: Sprague-Dawley, in vivo, read-out: TI
Answer using only a numeral; do not append any unit.

What selectivity ratio value was documented for this compound, COc1ccc(CCCCO[C@H]2CCCCC2N2CCOCC2)cc1OC (stereo partly specified) ?
2.2

Field entry: Brc1cccc(CCO[C@H]2CCCCC2N2CCOCC2)c1 (stereo partly specified)
3.3

Here is the next compound: O=C1CCN(C2CCCC[C@@H]2OCCc2c(Cl)cccc2Cl)C1 (stereo partly specified)
8.6

What do you have for O=C1CCN([C@@H]2CCCCC2OCc2c(Cl)cccc2Cl)C1 (stereo partly specified) ?
5.1

Next compound: COc1ccc(CCO[C@H]2CCCCC2N2CC[C@H](OCc3ccccc3)C2)cc1OC.Cl (stereo partly specified)
3.8

What do you have for Clc1cccc(Cl)c1CCOC1CCCC[C@H]1N1CCSC1 (stereo partly specified) ?
2.5

====

So I've got a bunch of compounds here, and I need their selectivity ratio values.
Assay: Therapeutic index, ratio of neurotoxicity in iv dosed Sprague-Dawley rat assessed as total amount of drug infused at the point that partial or complete convulsions are first observed to 20 times ED50 for antiarrhythmic activity in iv dosed Sprague-Dawley rat coronary artery occlusion model
Format: organism-based
Details: Sprague-Dawley, in vivo, read-out: TI
// return a plain number; no unit text

Endpoint output: selectivity ratio of OC1CCN(C2CCCC[C@@H]2OCCc2ccccc2Br)C1 (stereo partly specified) . Value?
8.4

Entry to check: Brc1ccc(CCO[C@H]2CCCCC2N2CCOCC2)cc1 (stereo partly specified)
2.2

Now the same for Brc1ccccc1CCO[C@H]1CCCCC1N1CCOCC1 (stereo partly specified)
6.3

Subsequent entry: COc1cc(CCCO[C@H]2CCCCC2N2CC[C@@H](O)C2)cc(Cl)c1OC (stereo partly specified)
7.6

Next up: O[C@@H]1CCN(C2CCCC[C@@H]2OCCc2ccccc2C(F)(F)F)C1 (stereo partly specified)
7.3

Can you check Clc1ccc(CCO[C@H]2CCCCC2N2CCOCC2)cc1Cl (stereo partly specified) next?
3.9

====

Assay: Therapeutic index, ratio of neurotoxicity in iv dosed Sprague-Dawley rat assessed as total amount of drug infused at the point that partial or complete convulsions are first observed to 20 times ED50 for antiarrhythmic activity in iv dosed Sprague-Dawley rat coronary artery occlusion model
Type: organism-based
Settings: Sprague-Dawley, in vivo, read-out: TI
assay.readout: selectivity ratio
Lab note: record the figure alone, no unit after it.

What value of measured selectivity ratio is listed for O=C1CCN(C2CCCC[C@@H]2OCC(c2ccccc2)c2ccccc2)C1 (some centres not stated) ?
3.1

Also need OC1CCN(C2CCCC[C@@H]2OCCc2c(Cl)cccc2Cl)C1 (some centres not stated) , thanks.
5.4

Also need COc1ccc(CCO[C@H]2CCCCC2N2CC[C@H](OC(C)=O)C2)cc1OC (some centres not stated) , thanks.
2

What do you have for "COc1ccc(CCO[C@@H]2CCCC[C@H]2N2CC[C@@H](OC(C)=O)C2)cc1OC" ?
1.8

What about Brc1ccc(OCCO[C@H]2CCCCC2N2CCOCC2)cc1 (some centres not stated) ?
1.4

Okay, and OC1CCN(C2CCCC[C@@H]2OCCn2ccc3ccccc32)C1 (some centres not stated) ?
9.4

Let us now turn to c1cc(CCO[C@H]2CCCCC2N2CCOCC2)c2ccsc2c1 (some centres not stated)
2.7

Same question for COc1ccc(CCO[C@H]2CCCCC2N2CCC3(C2)OCCO3)cc1OC (some centres not stated) please.
2.9

Follow-up entry: COc1ccc(CCOC2CCCC[C@H]2N2CCN(C(=O)Cc3ccc(OC)c(OC)c3)CC2)cc1OC (some centres not stated)
11.1

What would you report for c1ccc2c(CCO[C@H]3CCCCC3N3CCOCC3)csc2c1 (some centres not stated) ?
3.3

Please do the same for CC(=O)OC1CCN([C@@H]2CCCCC2OCCc2cccc3ccccc23)C1 (some centres not stated) as well.
2.3

Next molecule up: c1ccc2cc(CCO[C@H]3CCCCC3N3CCOCC3)ccc2c1 (some centres not stated)
5.3

Please give the result for COc1ccc(CCO[C@H]2CCCCC2N2CC[C@@H](OCc3ccccc3)C2)cc1OC (some centres not stated) too.
2.6

Here is the next molecule: c1ccc2cc(OCCO[C@H]3CCCCC3N3CCOCC3)ccc2c1 (some centres not stated)
1.5

Same read-out for COc1ccc(CCO[C@H]2CCCCC2N2CCC[C@@H]2CO)cc1OC (some centres not stated) ?
8.9

What would you report for COc1ccc(CCOC2CCCC[C@H]2N2CCC(F)C2)cc1OC (some centres not stated) ?
2.3

Now the molecule COc1ccc(CCOC2CCCC[C@H]2N2CCC(=O)C2)cc1OC (some centres not stated)
2.6

Param item: Clc1cccc(Cl)c1COC1CCCC[C@H]1N1CCOCC1 (some centres not stated)
2.7

Proceed to O[C@@H]1CCN(C2CCCC[C@@H]2OCCc2cc3ccccc3o2)C1 (some centres not stated)
3.3

Quick one: FC(F)(F)c1ccccc1CCO[C@H]1CCCC[C@H]1N1CCOCC1 (racemic)
3.6

Likewise for c1ccc2c(CCO[C@H]3CCCCC3N3CCOCC3)cccc2c1 (some centres not stated) ?
4.7

Where these numbers come from: ChEMBL document CHEMBL3879887
